Every entry's value here was drawn from the supplement of paper PMC12783771.

Assignment: determine reported sfGFP reporter fluorescence for the given variants.
B1: library; numbered along this chain (parent)
chain: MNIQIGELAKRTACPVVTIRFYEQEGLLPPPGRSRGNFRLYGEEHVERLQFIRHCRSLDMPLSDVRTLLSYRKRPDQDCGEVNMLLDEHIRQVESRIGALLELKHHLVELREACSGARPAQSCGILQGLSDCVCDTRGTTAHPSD

Variants of: B1
testDescription: sfGFP reporter fluorescence (15 h) (µM FITC); higher = higher leak
particulars: library round: Round 0; ligand: none
One number for each entry.

| alteration | sfGFP reporter fluorescence |
| --- | --- |
| P61N L107C G128M | 3.31 |

For each listed entry, give its sfGFP reporter fluorescence.
1. N83G
2. E7P
3. D135Y
4. L107N
5. L58C

1. 0.0559
2. 0.061
3. 0.0676
4. 0.0546
5. 0.0585
